# Target Of Assay: MBP-FoxP1dN (Mus musculus, UniProt P58462 326-579)
# Sequence: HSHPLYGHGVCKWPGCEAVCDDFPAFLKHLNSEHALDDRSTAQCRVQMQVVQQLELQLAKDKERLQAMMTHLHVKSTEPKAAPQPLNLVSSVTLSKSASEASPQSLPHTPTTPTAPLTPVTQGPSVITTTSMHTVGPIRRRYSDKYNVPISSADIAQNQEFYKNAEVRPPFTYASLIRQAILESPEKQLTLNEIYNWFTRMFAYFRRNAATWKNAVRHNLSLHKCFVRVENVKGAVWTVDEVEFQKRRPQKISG
# Test Summary: PD-seq (MBP pull-down with sequencing); 20 mM Tris-HCl pH 7.5, 100 mM NaCl, 1.5 mM MgCl2, 0.4 uM protein, 0.1 uM dsDNA library, 30 min, room temperature, amylose pull-down; high values mean tight binding
# Condition Description: protein: recombinant; tags: His6-MBP; chain copies: 2; dsDNA, one strand shown
The full ranking holds about 16,000 sequences; the median of “rpm ratio (pull-down/input)” is about 0.94, and the highest 2% start at about 1.7. For the sample, the highest values were picked, then their nearest neighbours and some sequences at random.
Measured Parameter: binding signal

{"Residue Sequence": "GATGATTGTTCTCCCAGCTGATGAATTCCCTCGGTCGAGTAAACAAATTTTCCTAATCTTTCTGTTCAAGCGCCATCTAC", "binding signal": "0.759 RPM ratio (pull-down/input)"}
{"Residue Sequence": "GATGATTGTTCTCCCAGCTGATGAATTTACGATCTCGAGTAAACAAATTTTCCTAATCTTTCTGTTCAAGCGCCATCTAC", "binding signal": "1.15 RPM ratio (pull-down/input)"}
{"Residue Sequence": "GATGATTGTTCTCCCAGCTGATGAATTTTTTTCATCGAGTAAACAAATTTTCCTAATCTTTCTGTTCAAGCGCCATCTAC", "binding signal": "1.02 RPM ratio (pull-down/input)"}
{"Residue Sequence": "GATGATTGTTCTCCCAGCTGATGAATTTGTTTCATCGAGTAAACAAATTTTCCTAATCTTTCTGTTCAAGCGCCATCTAC", "binding signal": "1.33 RPM ratio (pull-down/input)"}
{"Residue Sequence": "GATGATTGTTCTCCCAGCTGATGAATTGTTATATTCGAGTAAACAAATTTTCCTAATCTTTCTGTTCAAGCGCCATCTAC", "binding signal": "1.57 RPM ratio (pull-down/input)"}
{"Residue Sequence": "GATGATTGTTCTCCCAGCTGATGAATTTCTCTAGTCGAGTAAACAAATTTTCCTAATCTTTCTGTTCAAGCGCCATCTAC", "binding signal": "0.844 RPM ratio (pull-down/input)"}
{"Residue Sequence": "GATGATTGTTCTCCCAGCTGATGAATTGTGCCTGTCGAGTAAACAAATTTTCCTAATCTTTCTGTTCAAGCGCCATCTAC", "binding signal": "0.964 RPM ratio (pull-down/input)"}
{"Residue Sequence": "GATGATTGTTCTCCCAGCTGATGAATTCTTGGTTTCGAGTAAACAAATTTTCCTAATCTTTCTGTTCAAGCGCCATCTAC", "binding signal": "0.962 RPM ratio (pull-down/input)"}

What measured binding signal goes with GATGATTGTTCTCCCAGCTGATGAATTTTTGCACTCGAGTAAACAAATTTTCCTAATCTTTCTGTTCAAGCGCCATCTAC ?
0.891 RPM ratio (pull-down/input)
